So I've got a bunch of compounds here, and I need their fold induction at 10 µM values.
test system: anergic human T-cells; assay: Anergic T-cell activation assessed by IFNγ secretion (ionomycin-induced anergy); assay type: cell-based; details: 10 μM, anergic T-cells re-challenged with anti-CD3 and anti-CD28 for 24 hours, read-out: IFNγ Fold change from baseline

A selection of reference data follows.
>>> observed_result("C[C@H](c1cc2c(c(C(F)(F)F)c1)CN(c1cccc(C3(Cc4nncn4C)COC3)c1)C2=O)N1CC[C@H](F)C1")
"> 4.01"
>>> observed_result("C[C@H](Cc1nncn1C)c1cccc(N2Cc3c(ccnc3C3CC3)C2=O)c1")
"2.51 to 4"
>>> observed_result("COC1CN(Cc2cc3c(c(C(F)(F)F)c2)CN(c2cccc([C@@](C)(F)C(F)(F)c4nncn4C)c2)C3=O)C1")
"> 4.01"

We next turn to a different compound, shown below.
Q. // fold induction at 10 µM lookup, key: C[C@H](Cc1nncn1C)c1cccc(NC(=O)c2n[nH]c3c2CCC3)c1
A. ≤ 2.5
